Provenance of the data: the supplement of paper PMC9170038

For each of the sequences below, state its apparent KD of K4 kissing-loop reporter.
tested on: K4 kissing-loop RNA reporter; assay: apparent KD of K4 kissing-loop reporter; higher = weaker reporter binding; settings: Eterna round: R107; input ligand: tryptophan 2.4 mM;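 note: bound reporter read as fluorescence of individual clusters on recovered sequencing chips by microscopy, with normalized cluster intensities fitted with a binding model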
Your answer should be a plain number; it is taken to be in nM.

QUERY: Name the recorded apparent KD of K4 kissing-loop reporter of the sequence listed here: GCCGUCCGGUCGCAAGACCGGACAGCCGAUACCAGCGCGAAGGCGCGCCCUUGGCAGCGGCACCGAGUGAUGUUCGGUCAGGCGG [#2 Same State - Theophylline A Attempt #2 (HarryS)]
RESULT: 166

QUERY: Name the recorded apparent KD of K4 kissing-loop reporter of the sequence listed here: ACGCGCGCGAGUGAUGUUCGGAGCGGCUGGCAGGAUAUGUAGCAAUGCAGAAGGGUCGUGGCGCGUCCAGGGUAACCUGGACGCG [#2 Exclusion - FMN A Attempt #26 (HarryS)]
RESULT: 719

QUERY: Name the recorded apparent KD of K4 kissing-loop reporter of the sequence listed here: CGUGCCCAGCCGGAUACCAGUGACCCGCUGGGAACCGCGGGCCCAGAGUGAUGUUCGGGACACCCUUGGCAGCCGCCUGGGCGGC [#2 Same State - Theophylline B Attempt #12 (HarryS)]
RESULT: 1250

QUERY: Name the recorded apparent KD of K4 kissing-loop reporter of the sequence listed here: AAUAUAGUGAUGUUAUAUAAGAAGGAGUUACGAGGACCGGUACGGCCGCCACUCGAAACGAGUGAGGGCCCGGGAGAUUGGGCCC [SSTryptA.G]
RESULT: 262

QUERY: Name the recorded apparent KD of K4 kissing-loop reporter of the sequence listed here: UGGGUGUAGUGAUGUUAUAUAGAGAGUGAUACCAGCUUAGAGAGAAGCCCUUGGCAGCAUAGAAGAGUAUCAUUGGAGGAGGAGG [ExTheophyl.Ay]
RESULT: 401
